These entries and their values trace back to ChEMBL document CHEMBL1201862.

Test system: TK-10
Experiment: NCI tumour cell line growth inhibition, 48 h
Active and inactive are the calls of the source. No stated cut-off is given here; in the data, active = GI50 up to about 1.1 µM and inactive = higher.
measured-quantity: GI50

Some compounds with recorded GI50:
>>> endpoint_result("COc1ccc2ccccc2c1CN1CCOCCOCCN(Cc2c(OC)ccc3ccccc23)CCOCCOCC1")
"> 100 µM (inactive)"
>>> endpoint_result("CC1(C)OC2OC(COC(=O)C=[N+]=[N-])C3OC(C)(C)OC3C2O1 (configuration not stated)")
"> 100 µM (inactive)"
>>> endpoint_result("O=C(Nc1ccc(Cl)cc1Cl)/C(Cl)=C1/Sc2ccccc2NC1=O")
"73.5 µM (inactive)"
>>> endpoint_result("CCOC(=O)CCC(NC(=O)c1ccc(Nc2nc3ccccc3nc2C(=O)OCC)s1)C(=O)OCC (configuration not stated)")
"> 100 µM (inactive)"
>>> endpoint_result("CC1(C2CCC3(C)OC3C2)CO1 (configuration not stated)")
"> 100 µM (inactive)"
>>> endpoint_result("CC(C)=CCC1=C(OCC(=O)O)C(=O)c2ccccc2C1=O")
"> 100 µM (inactive)"

# map each compound to its GI50
1. COC(=O)/C=C/c1ccc(OP(=O)(O)O)c(OC)c1
2. COC(=O)c1ccccc1NC(=O)C(=O)CC(=O)CC(c1ccccc1)c1c(O)c2ccccc2oc1=O (configuration not stated)
3. COc1ccc(Nc2nc3c([nH]2)c(=O)n(C)c(=O)n3C)cc1
4. C[C@H](CCc1nc(C#N)c(N)o1)[C@H]1CC[C@H]2[C@@H]3CCC4C[C@@H](O)CC[C@]4(C)[C@H]3C[C@@H](O)[C@]12C (some centres not stated)
5. Clc1ccc(/N=C2\c3ccccc3CN2c2ccc(Cl)cc2)cc1
6. CCC(=S)N(C)O
7. CN(C)C(=S)/N=c1\ss/c(=N\S(=O)(=O)c2ccccc2)n1N(C)C

> 100 µM (inactive)
> 100 µM (inactive)
> 10 µM (inactive)
14.7 µM (inactive)
87.5 µM (inactive)
60.1 µM (inactive)
> 100 µM (inactive)
